src = PubChem BioAssay (NCI)

test system: EKVX NSCLC; test: NCI tumour cell line growth inhibition, 48 h
measured.quantity: log10 TGI (log10 of the value in µM)
Recorded TGI (log10, µM)

- compound: "N#CC(C/C=C/c1ccccc1)NNC(=O)c1c(Cl)c(Cl)c(Cl)c(Cl)c1-c1nc2ccc(C(=O)c3ccccc3)cc2[nH]1 (centres undefined)"
  result.number: 1.68
- compound: "COc1cc(/C=C2\\C(=O)Nc3ccccc32)cc(OC)c1O"
  result.number: 1.68
- compound: "COc1cc2c(cc1OCCCN1CCN(C)CC1)N=C[C@@H]1CCCN1C2=O"
  result.number: 0.78
- compound: "O=c1c2ccccc2n2c(-c3ccc(O)cc3)nnc2n1-c1ccccc1"
  result.number: 1.54

## Input Quick one: log10 TGI for CCc1ccc(C(=O)/C=C/C23c4ccccc4C(c4ccccc42)C2C(=O)NC(=O)C23)cc1 (centres undefined) ?
## Output 0.55

====

test system: OVCAR-3 ovarian; assay: NCI tumour cell line growth inhibition, 48 h
measured.quantity: TGI (µM)
# value in µM; strip the unit string

- compound: "C=C(C(=O)OC)N1C(=O)CC(C)C1=O (stereo not given)"
  TGI [µM]: 22.4

## Input Notebook entry, OVCAR-3 ovarian assay: TGI of O=C1/C=C/[C@@H](O)[C@@H]2C[C@@H](O)C[C@H]2/C=C/CCC[C@H](CCc2ccccc2)O1 = ?
## Output 0.0611

## Input Entry Clc1ccc(Cn2c(CN3CCCC3)nc3ccccc32)cc1 , system OVCAR-3 ovarian: what TGI was measured?
## Output 47.7

## Input Any idea what TGI came out for CN(CCCNC(=O)c1nn(-c2ccccc2)c2c1ccc1ccccc12)CCCNC(=O)c1nn(-c2ccccc2)c2c1ccc1ccccc12 on OVCAR-3 ovarian?
## Output 2.73

====

system: NCI-H460 lung; experiment: NCI tumour cell line growth inhibition, 48 h
measured.quantity: TGI (µM)
Respond numerically; units are µM and should not be typed.

Examples with answers:
- compound: "CCC12C=CCN3CCC4(c5cc(C6(C(=O)OC)CCCCCc7c6[nH]c6ccccc76)c(OC)cc5N(C)C4C(O)(C(=O)OC)C1OC(C)=O)C32 (centres undefined)"
  tested.system: "NCI-H460 lung"
  result.units: "µM"
  result.number: 9.92
- compound: "S=C(Nc1ccccc1)c1ccc(CN2CCCCC2)s1"
  tested.system: "NCI-H460 lung"
  result.units: "µM"
  result.number: 45.4
- compound: "COC1=CC(=O)c2c(cc(COP(N)(=O)N(CCBr)CCBr)n2C)C1=O (centres undefined)"
  tested.system: "NCI-H460 lung"
  result.units: "µM"
  result.number: 5.38
- compound: "COc1cc(C2CC(c3cccc(Nc4ccncc4)c3)=NN2c2ccccc2)cc(OC)c1OC (centres undefined)"
  tested.system: "NCI-H460 lung"
  result.units: "µM"
  result.number: 3.27

# next compound below
## Input Fill in the blank: the reported TGI of COc1cc([C@@H]2c3cc4c(cc3[C@@H](OC3OC5CO[C@@H](c6cccs6)OC5C(O)C3O)[C@H]3COC(=O)[C@H]23)OCO4)cc(OC)c1O (some centres undefined) is ____.
## Output 2.59

====

test system: TK-10 renal; experiment: NCI tumour cell line growth inhibition, 48 h
measured.quantity: GI50

- molecule: "COc1cc(-c2nn(-c3cccc(NC(=O)Nc4cccc(C(F)(F)F)c4)c3)cc2-c2ccncc2)ccc1Cl"
  measured.quantity: "GI50"
  result: "1.06 µM"
- molecule: "COc1ccc(-c2ccc(-c3ccc(C(=N)N)c(F)c3)s2)cc1"
  measured.quantity: "GI50"
  result: "0.72 µM"
- molecule: "Cn1c(-c2ccncc2)c(-c2ccc(F)cc2)c2ncccc21"
  measured.quantity: "GI50"
  result: "16.4 µM"
- molecule: "CC(=O)Oc1cc(C(C)C)c(OCCN(C)C)cc1C"
  measured.quantity: "GI50"
  result: "> 100 µM"
- molecule: "COc1cc(/C=C/C(=O)c2ccccc2)cc(OC)c1OC"
  measured.quantity: "GI50"
  result: "10.2 µM"

## Input # get_value(readout='GI50', item= Cn1cc(-c2csc(-c3c[nH]c4ccccc34)n2)c2cnccc21 )
## Output 2.74 µM

## Input What does the record list as GI50 for CCc1ccc(C(=O)/C=C/C23c4ccccc4C(c4ccccc42)C2C(=O)NC(=O)C23)cc1 (stereo not given) ?
## Output 2.62 µM

## Input I'd like to know its GI50. The molecule in question is O=C(CN(/C=C/C(=O)C(F)(F)F)c1ccc(Cl)cc1)c1ccc(F)cc1
## Output 18.9 µM

## Input Look up GI50: Cc1cc(Cl)ccc1OCc1nn2c(CCCCc3nnc4sc(COc5ccc(Cl)cc5C)nn34)nnc2s1
## Output 26.2 µM

## Input Could you share which GI50 value was measured for COC(=O)/C=C1/SC(=Nc2ccc(F)cc2)N(CCc2c[nH]c3ccc(O)cc23)C1=O ?
## Output 14 µM

====

test system: UACC-257 melanoma; assay: NCI tumour cell line growth inhibition, 48 h
measured.quantity: TGI (µM)
// units = µM; emit number, no label

- chemical.smiles: "Cc1ccc(CN(C)c2ccc(CO)c(Cl)c2)cc1"
  result.units: "µM"
  result.number: 1.31

Note: attention shifts to another entry.
## Input Which TGI is reported for this compound? COc1ccc2c(c1OC)-c1c(c3ccc([N+](=O)[O-])cc3c(=O)n1CCCN)C2=O
## Output 9.74

====

system: COLO 205 colon; test: NCI tumour cell line growth inhibition, 48 h; in the data active means GI50 below about 0.43 µM; inactive means the rest
Choose the fitting class; nothing outside active, inactive is accepted.

- compound: "COc1ccc(C2C=C(c3ccc(OC)c(OC)c3)N=C3SC=CN32)c(Br)c1 (configuration not stated)"
  tested.system: "COLO 205 colon"
  class.name: "inactive"

Consider the record given below.
## Input Outcome? Nc1c(C(=O)c2cccc(OC[C@@H](O)CO)c2)cnn1-c1ccc(F)cc1
## Output inactive

====

tested on: NCI-H23 lung; test: NCI tumour cell line growth inhibition, 48 h
Reported values of GI50 for individual entries

## Input Find the recorded GI50 belonging to CCN(CC)CC(O)CNc1c2ccc(Cl)cc2nc2ccc(OC)cc12 (stereo not given) and report it.
## Output 0.852 µM

## Input Can you share its GI50? I mean this molecule: O=c1ncc(I)cn1C1CC(O)C(CO)O1 (stereo not given)
## Output 1620 µM

## Input # input molecule: Cc1ccc(C2=NN(c3ccc(S(C)(=O)=O)cc3)C(=O)CC2)cc1 ; wanted: its GI50
## Output 2.13 µM

## Input Any idea what its GI50 is? The molecule is NCCCCCn1c2c(c3ccccc3c1=O)C(=O)c1ccccc1-2
## Output 0.314 µM

## Input Reported GI50 for Cc1nc2cc(-c3nn(C(C)C)c4ncnc(N)c34)ccc2o1 : what is it?
## Output 0.0415 µM

====

system: SNB-78 CNS; test: NCI tumour cell line growth inhibition, 48 h
Outcome label depends on TGI relative to 30 µM: at/above gives Fulfilled, below gives Not fulfilled.

Please review the entries below; each comes with its answer.
- compound: "NS(=O)(=O)c1cc2c(cc1Cl)NC(/C(=N/NC(=O)c1ccncc1)C1C(=O)NC(=O)NC1=O)=NS2(=O)=O"
  class.name: "Fulfilled"
- compound: "CSc1cc(-c2cc3ccccc3o2)oc(=O)c1C#N"
  class.name: "Fulfilled"
- compound: "COC1/C(=C\\c2ccccc2I)c2ccccc2N1C(C)=O (stereo not given)"
  class.name: "Fulfilled"
- compound: "Nc1nc(N)c2ncn(CCCC(c3ccccc3)P(=O)(O)O)c2n1 (stereo not given)"
  class.name: "Fulfilled"
- compound: "C[CH2][Sn]([CH2]C)([O]C(=O)c1c(F)cccc1F)[O][Sn]([CH2]C)([CH2]C)[O]C(=O)c1c(F)cccc1F"
  class.name: "Fulfilled"

## Input Is it the case that O=C1C2c3[nH]c4ccccc4c3C3CCCCC3C2C(=O)N1c1ccccc1 (stereo not given) has TGI reaching or exceeding 30 µM?
## Output Fulfilled

## Input Given the entry COc1ccc(/C=C2\CCC(CN3CCOCC3)C2=O)cc1 (stereo not given) , answer whether its TGI meets or surpasses 30 µM.
## Output Not fulfilled

## Input Threshold query (TGI >= 30 µM) on CN(C)CC/C(=N\Nc1ccc(Cl)cc1)c1ccccc1
## Output Not fulfilled

## Input Exam item: decide whether the reported TGI for N#CNC(=NCCO)NCCO is at least 30 µM.
## Output Fulfilled

## Input Does TGI meet or surpass 30 µM for O=C1C(c2ccc([N+](=O)[O-])cc2)=C(Cl)C(=O)c2c(O)cccc21 ?
## Output Fulfilled

====

tested on: MALME-3M melanoma; test: NCI tumour cell line growth inhibition, 48 h
measured.quantity: TGI

Consider the following illustrative entries.
- compound: "O=C1C(c2ccc([N+](=O)[O-])cc2)=C(Cl)C(=O)c2c(O)cccc21"
  TGI: "34.8 µM"
- compound: "N#C/C(=C\\c1ccc(Br)cc1)n1nnc2c(F)cccc21"
  TGI: "3.93 µM"
- compound: "CSC1N=CNc2c1sc(=S)n2-c1ccccc1 (stereo unspecified)"
  TGI: "> 100 µM"
- compound: "CCC1=C(C(C)=O)[C@@H]2CCCCC(C(=O)OC)[C@@H]2C1=O (stereo partly specified)"
  TGI: "> 100 µM"
- compound: "CC(=O)OC12c3ccccc3C1CCCC21OCCCO1 (stereo unspecified)"
  TGI: "> 100 µM"
- compound: "O=c1ccccc(-c2ccc(Br)cc2)c1O"
  TGI: "47.7 µM"

## Input Item COc1cc(S(=O)(=O)Nc2nc(-c3ccc(N4C(=O)/C(=C\c5cccs5)N=C4c4ccccc4)cc3)cs2)ccc1Cl has what recorded TGI?
## Output 55.5 µM

## Input What does the data say about its TGI? Entry: Cc1nc2cc(-c3nn(C(C)C)c4ncnc(N)c34)ccc2o1
## Output 0.0787 µM

## Input Request the reported TGI associated with CC1OC(n2cc(Cl)c(=O)[nH]c2=O)C=C(OC(=O)c2ccccc2)C1=O (stereo unspecified)
## Output > 100 µM

## Input Quick check: TGI of O=NN1CCNC1Cc1ccccc1 (stereo unspecified) ?
## Output > 100 µM

## Input What value of TGI has been reported for the following compound? CCn1c(=O)c2cn[nH]c2n(C)c1=O
## Output > 100 µM

## Input Please look up its TGI: C/C(CC(=O)Nc1ccc(Cl)c(Cl)c1)=N/NC(=O)C[N+](C)(C)C
## Output > 100 µM

## Input What does the data say about its TGI? Entry: NC(Cc1ccccc1)P(=O)(O)O (stereo unspecified)
## Output > 100 µM

## Input Find the recorded TGI belonging to C=C1c2nc3ccccc3n2C=C(c2ccc(C)cc2)N1c1ccccc1 and report it.
## Output > 43.3 µM

## Input # lookup: TGI of O=C(OCC1OC(n2cc(C(F)(F)F)c(=O)[nH]c2=O)CC1OC(=O)c1ccc([N+](=O)[O-])cc1)c1ccc([N+](=O)[O-])cc1 (stereo unspecified)
## Output > 100 µM

## Input Item under review: CNC(=S)/C(C#N)=C(\N)N1CCN(C)CC1 . Reported TGI?
## Output > 100 µM

## Input I'd like to know its TGI. The compound in question is Cc1cccc2c(NCCCN(C)C)c3c([N+](=O)[O-])ccc(C)c3nc12
## Output 0.375 µM

## Input # lookup: TGI of CCOC(=O)[C@@H]1[C@@H]2NC(=O)N[C@@]1(C)Oc1ccccc12
## Output > 100 µM

## Input Record request: TGI value, item C=C(C)c1cc(C(C)(C)C)cc(C(=C)C)c1S(C)(=O)=O
## Output > 100 µM

## Input Quick one: TGI of CC(=O)OC1C[C@@H](C)C2(CC(c3ccoc3)OC2=O)C2CCC(O)C3(CO3)C12CO (stereo partly specified) ?
## Output > 100 µM

## Input Value lookup for TGI; key = Nc1c(C(=O)c2cccc(OC[C@@H](O)CO)c2)cnn1-c1ccc(F)cc1
## Output > 25 µM

## Input Recorded TGI of c1ccc2c(c1)Oc1cccc3cccc-2c13 , please.
## Output > 100 µM

## Input Item CCc1ccc(C(=O)/C=C/C23c4ccccc4C(c4ccccc42)C2C(=O)NC(=O)C23)cc1 (stereo unspecified) has what recorded TGI?
## Output 3.96 µM
